All values here come from patent US20250127801A1.

method.description: physchem
condition.label: 23 °C, fassif, thermodynamic from solid
Examples of compounds with documented solubility thermodynamic follow.
Report only the number, with the unit µg/mL understood.

compound	unit.info	solubility thermodynamic
CC1=NO[C@@]2(CC[C@H](C)N3C[C@H]2n2cc(C(=O)NCc4ccc(F)cc4F)c(=O)c(OC(=O)OCCC(C)(C)c4c(CC(=O)O)cc(C)cc4OP(=O)(O)O)c2C3=O)C1 [Compound 25]	µg/mL	4760
CC1=NO[C@@]2(CC[C@H](C)N3C[C@H]2n2cc(C(=O)NCc4ccc(F)cc4F)c(=O)c(OC(=O)N(C)c4ncc(C(=O)N[C@@H](CC(=O)O)C(=O)O)cc4COP(=O)(O)O)c2C3=O)C1 [Compound 84]	µg/mL	5580
CC1=NO[C@@]2(CC[C@H](C)N3C[C@H]2n2cc(C(=O)NCc4ccc(F)cc4F)c(=O)c(OCc4ccc(OP(=O)(O)O)cc4)c2C3=O)C1 [Compound 41]	µg/mL	5080
CC1=NO[C@@]2(CC[C@H](C)N3C[C@H]2n2cc(C(=O)NCc4ccc(F)cc4F)c(=O)c(OCOC(=O)[C@@H]4CC[C@@H]4CN(CC(=O)O)C(=O)OCOP(=O)(O)O)c2C3=O)C1 [Compound 80]	µg/mL	4150
CC1=NO[C@@]2(CC[C@H](C)N3C[C@H]2n2cc(C(=O)NCc4ccc(F)cc4F)c(=O)c(OC(=O)N(C)c4ncc(C(=O)O)cc4COP(=O)(O)O)c2C3=O)C1 [Compound 4]	µg/mL	4800
CC1=NO[C@@]2(CC[C@H](C)N3C[C@H]2n2cc(C(=O)NCc4ccc(F)cc4F)c(=O)c(OCOC(=O)OCCC(C)(C)c4c(CC(=O)O)cc(C)cc4OP(=O)(O)O)c2C3=O)C1 [Compound 23]	µg/mL	4750
CC1=NO[C@@]2(CC[C@H](C)N3C[C@H]2n2cc(C(=O)NCc4ccc(F)cc4F)c(=O)c(OCc4ccccc4OP(=O)(O)O)c2C3=O)C1 [Compound 69]	µg/mL	5140
COC1=NO[C@@]2(CC[C@H](C)N3C[C@H]2n2cc(C(=O)NCc4ccc(F)cc4F)c(=O)c(OC(=O)N(C)c4ncccc4CN(CC(=O)O)C(=O)OCOP(=O)(O)O)c2C3=O)C1 [Compound 59]	µg/mL	5280

-- ask Could you tell me which solubility thermodynamic is on file for CC1=NO[C@@]2(CC[C@H](C)N3C[C@H]2n2cc(C(=O)NCc4ccc(F)cc4F)c(=O)c(OCOC(=O)N(C)c4ncccc4CN(C)C(=O)OCOP(=O)(O)O)c2C3=O)C1 [Compound 62] ?
-- reply 5030

-- ask // query: CC1=NO[C@@]2(CC[C@H](C)N3C[C@H]2n2cc(C(=O)NCc4ccc(F)cc4F)c(=O)c(OC(=O)N(C)c4ncccc4CN(CC(=O)OCc4ccccc4)C(=O)OCOP(=O)(O)O)c2C3=O)C1 [Compound 33]
-- reply 4170
